# TARGET DESC: UniProtKB P14416
# Sequence (P14416 whole entry): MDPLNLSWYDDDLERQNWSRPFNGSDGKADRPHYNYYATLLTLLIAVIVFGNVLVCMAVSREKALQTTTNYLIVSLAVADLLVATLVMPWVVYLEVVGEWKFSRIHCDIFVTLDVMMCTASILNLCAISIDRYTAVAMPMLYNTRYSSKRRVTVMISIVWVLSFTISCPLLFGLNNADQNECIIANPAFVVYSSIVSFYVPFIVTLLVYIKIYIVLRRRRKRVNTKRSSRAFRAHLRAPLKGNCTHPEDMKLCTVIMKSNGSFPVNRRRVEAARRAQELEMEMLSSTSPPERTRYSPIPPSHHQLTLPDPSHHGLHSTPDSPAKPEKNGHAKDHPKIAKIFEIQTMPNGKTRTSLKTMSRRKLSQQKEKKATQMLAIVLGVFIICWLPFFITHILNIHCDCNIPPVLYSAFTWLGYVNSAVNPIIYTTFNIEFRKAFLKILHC
# MEASUREMENT NOTES: biochemical
# Format: binding
# Parameters: expressed in transfected cells; host or cells: CHO-K1, pcDNA3.1/GS, zeocin-selected clonal line; membranes
Bridge positions count the residues as written; N and C are the ends. Square brackets hold non-standard residues; d marks the D form. Peptide text beside a SMILES is read from it. * marks the point of attachment. X2 = CN1C[C@H](CSCC(=O)*)C[C@@H]2c3cccc4[nH]cc(c34)C[C@H]21; Phe(4-F) = N[C@@H](Cc1ccc(F)cc1)C(=O)O; 4Pal = N[C@@H](Cc1ccncc1)C(=O)O
Could you please report measured pKi for the items listed next?
pKi is a log-scale quantity: -log10 of the concentration expressed in molar.

# pKi of C[C@@H](O)[C@@H]1NC(=O)[C@H](CCCCN)NC(=O)[C@@H](Cc2c[nH]c3ccccc23)NC(=O)[C@H](Cc2ccncc2)NC(=O)[C@H](Cc2ccccc2)NC(=O)[C@H](CCCNC(=N)N)NC(=O)[C@H](NCC[S@@+]([O-])C[C@@H]2C[C@@H]3c4cccc5[nH]cc(c45)C[C@H]3N(C)C2)CCCCNC(=O)[C@H](Cc2ccc(O)cc2)NC1=O [Compound 12] = 6.59

Noted for C[C@@H](O)[C@@H]1NC(=O)[C@H](CCCCN)NC(=O)[C@@H](Cc2c[nH]c3ccccc23)NC(=O)[C@H](Cc2ccccc2)NC(=O)[C@H](Cc2ccccc2)NC(=O)[C@H](CCCNC(=N)N)NC(=O)[C@H](NCCCC[C@@H]2C[C@@H]3c4cccc5[nH]cc(c45)C[C@H]3N(C)C2)CCCCNC(=O)[C@H](Cc2ccc(F)cc2)NC1=O [Compound 2] : its pKi reads 8.16

Item: C[C@@H](O)[C@@H]1NC(=O)[C@H](CCCCN)NC(=O)[C@@H](Cc2c[nH]c3ccccc23)NC(=O)[C@H](Cc2ccncc2)NC(=O)[C@H](Cc2ccccc2)NC(=O)[C@H](CCCNC(=N)N)NC(=O)[C@H](NC[C@H](CCCCNC(=O)C[S+]([O-])C[C@@H]2C[C@@H]3c4cccc5[nH]cc(c45)C[C@H]3N(C)C2)NC(=O)C[S+]([O-])C[C@@H]2C[C@@H]3c4cccc5[nH]cc(c45)C[C@H]3N(C)C2)CCCCNC(=O)[C@H](Cc2ccc(O)cc2)NC1=O (some centres unmarked) [Compound 16] | pKi: 7.65

Reported pKi of C[C@@H](O)[C@@H]1NC(=O)[C@H](CCCCN)NC(=O)[C@@H](Cc2c[nH]c3ccccc23)NC(=O)[C@H](Cc2ccccc2)NC(=O)[C@H](Cc2ccccc2)NC(=O)[C@H](CCCNC(=N)N)NC(=O)[C@H](NCCSC[C@@H]2C[C@@H]3c4cccc5[nH]cc(c45)C[C@H]3N(C)C2)CCCCNC(=O)[C@H](Cc2ccccc2F)NC1=O [Compound 6D] : 7.50

Data point: C[C@@H](O)[C@@H]1NC(=O)[C@H](CCCCN)NC(=O)[C@@H](Cc2c[nH]c3ccccc23)NC(=O)[C@H](Cc2ccccc2)NC(=O)[C@H](Cc2ccccc2)NC(=O)[C@H](CCCNC(=N)N)NC(=O)[C@H](NC(=O)CSC[C@@H]2C[C@@H]3c4cccc5[nH]cc(c45)C[C@H]3N(C)C2)CCCCNC(=O)[C@H](Cc2ccc(F)cc2)NC1=O [Compound 34] (X2-[dK]RFF[dW]KT[Phe(4-F)]; lactam 1-C) ; pKi = 6.52

The compound identified as CC(=O)N(CCC(=O)NC(CN[C@@H]1CCCCNC(=O)[C@H](Cc2ccc(F)cc2)NC(=O)[C@H]([C@@H](C)O)NC(=O)[C@H](CCCCN)NC(=O)[C@@H](Cc2c[nH]c3ccccc23)NC(=O)[C@H](Cc2ccccc2)NC(=O)[C@H](Cc2ccccc2)NC(=O)[C@H](CCCNC(=N)N)NC1=O)Cc1ccc(O)cc1)C[C@@H]1C[C@@H]2c3cccc4[nH]cc(c34)C[C@H]2N(C)C1 (single isomer, unassigned) [Compound 27] registered its pKi at 6.56

Record C[C@@H](O)[C@@H]1NC(=O)[C@H](CCCCN)NC(=O)[C@@H](Cc2c[nH]c3ccccc23)NC(=O)[C@H](Cc2ccccc2)NC(=O)[C@H](Cc2ccccc2)NC(=O)[C@H](CCCNC(=N)N)NC(=O)[C@H](NCCCCC[C@@H]2C[C@@H]3c4cccc5[nH]cc(c45)C[C@H]3N(C)C2)CCCCNC(=O)[C@H](Cc2ccc(F)cc2)NC1=O [Compound 3] . Reported pKi: 7.34

Field pKi (entry C[C@@H](O)[C@@H]1NC(=O)[C@H](CCCCN)NC(=O)[C@@H](Cc2c[nH]c3ccccc23)NC(=O)[C@H](Cc2ccncc2)NC(=O)[C@H](Cc2ccccc2)NC(=O)[C@H](CCCNC(=N)N)NC(=O)[C@H](NC(=O)CSC[C@@H]2C[C@@H]3c4cccc5[nH]cc(c45)C[C@H]3N(C)C2)CCCCNC(=O)[C@H](Cc2ccc(O)cc2)NC1=O [Compound 25] (X2-[dK]RF[4Pal][dW]KTY; lactam 1-C) ) reads 6.56

Reported pKi ( C[C@@H](O)[C@@H]1NC(=O)[C@H](CCCCN)NC(=O)[C@@H](Cc2c[nH]c3ccccc23)NC(=O)[C@H](Cc2ccccc2)NC(=O)[C@H](Cc2ccccc2)NC(=O)[C@H](CCCNC(=N)N)NC(=O)[C@H](NCCSC[C@@H]2C[C@@H]3c4cccc5[nH]cc(c45)C[C@H]3N(C)C2)CCCCNC(=O)[C@H](Cc2c(F)c(F)c(F)c(F)c2F)NC1=O [Compound 6E] ) = 7.39

// CC(=O)N(CCCN(C(C)=O)[C@@H]1CCCCNC(=O)[C@H](Cc2ccc(F)cc2)NC(=O)[C@H]([C@@H](C)O)NC(=O)[C@H](CCCCN)NC(=O)[C@@H](Cc2c[nH]c3ccccc23)NC(=O)[C@H](Cc2ccccc2)NC(=O)[C@H](Cc2ccccc2)NC(=O)[C@H](CCCNC(=N)N)NC1=O)C[C@@H]1C[C@@H]2c3cccc4[nH]cc(c34)C[C@H]2N(C)C1 [Compound 28] : pKi value = 7.40
